Catalogue of percentage of inhibition, cell adhesion assay readings, one per entry.
# TARGET_OR_TEST_SYSTEM: integrin αIIbβ3 (UniProt P08514 32-1039; P05106 27-788)
# Sequence (P08514 32-1039, chain 1 of 2): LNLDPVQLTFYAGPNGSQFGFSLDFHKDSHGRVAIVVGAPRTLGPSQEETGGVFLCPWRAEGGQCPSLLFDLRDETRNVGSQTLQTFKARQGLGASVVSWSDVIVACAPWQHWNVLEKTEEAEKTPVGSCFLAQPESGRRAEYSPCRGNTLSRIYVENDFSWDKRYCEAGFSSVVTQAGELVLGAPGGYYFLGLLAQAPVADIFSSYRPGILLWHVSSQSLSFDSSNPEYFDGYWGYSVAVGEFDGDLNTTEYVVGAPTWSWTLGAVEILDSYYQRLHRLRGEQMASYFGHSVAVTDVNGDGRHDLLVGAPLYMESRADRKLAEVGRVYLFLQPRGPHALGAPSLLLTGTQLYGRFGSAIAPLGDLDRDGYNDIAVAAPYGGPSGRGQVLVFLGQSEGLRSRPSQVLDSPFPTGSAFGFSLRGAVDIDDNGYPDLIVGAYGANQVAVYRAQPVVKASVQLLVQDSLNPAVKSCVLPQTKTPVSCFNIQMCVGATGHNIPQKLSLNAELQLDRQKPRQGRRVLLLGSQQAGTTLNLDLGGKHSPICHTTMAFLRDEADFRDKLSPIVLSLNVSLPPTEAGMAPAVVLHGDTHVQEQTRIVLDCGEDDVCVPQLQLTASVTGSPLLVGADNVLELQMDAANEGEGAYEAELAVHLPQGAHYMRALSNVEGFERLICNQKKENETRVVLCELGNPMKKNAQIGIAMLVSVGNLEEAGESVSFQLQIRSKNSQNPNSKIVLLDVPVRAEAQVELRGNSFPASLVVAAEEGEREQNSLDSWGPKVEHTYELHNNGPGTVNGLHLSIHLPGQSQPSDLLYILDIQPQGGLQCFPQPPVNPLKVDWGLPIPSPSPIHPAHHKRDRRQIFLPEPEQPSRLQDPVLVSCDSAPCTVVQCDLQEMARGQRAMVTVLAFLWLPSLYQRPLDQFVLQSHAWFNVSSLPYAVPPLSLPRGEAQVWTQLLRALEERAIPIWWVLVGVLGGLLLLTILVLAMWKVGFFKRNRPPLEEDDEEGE
# Sequence (P05106 27-788, chain 2 of 2): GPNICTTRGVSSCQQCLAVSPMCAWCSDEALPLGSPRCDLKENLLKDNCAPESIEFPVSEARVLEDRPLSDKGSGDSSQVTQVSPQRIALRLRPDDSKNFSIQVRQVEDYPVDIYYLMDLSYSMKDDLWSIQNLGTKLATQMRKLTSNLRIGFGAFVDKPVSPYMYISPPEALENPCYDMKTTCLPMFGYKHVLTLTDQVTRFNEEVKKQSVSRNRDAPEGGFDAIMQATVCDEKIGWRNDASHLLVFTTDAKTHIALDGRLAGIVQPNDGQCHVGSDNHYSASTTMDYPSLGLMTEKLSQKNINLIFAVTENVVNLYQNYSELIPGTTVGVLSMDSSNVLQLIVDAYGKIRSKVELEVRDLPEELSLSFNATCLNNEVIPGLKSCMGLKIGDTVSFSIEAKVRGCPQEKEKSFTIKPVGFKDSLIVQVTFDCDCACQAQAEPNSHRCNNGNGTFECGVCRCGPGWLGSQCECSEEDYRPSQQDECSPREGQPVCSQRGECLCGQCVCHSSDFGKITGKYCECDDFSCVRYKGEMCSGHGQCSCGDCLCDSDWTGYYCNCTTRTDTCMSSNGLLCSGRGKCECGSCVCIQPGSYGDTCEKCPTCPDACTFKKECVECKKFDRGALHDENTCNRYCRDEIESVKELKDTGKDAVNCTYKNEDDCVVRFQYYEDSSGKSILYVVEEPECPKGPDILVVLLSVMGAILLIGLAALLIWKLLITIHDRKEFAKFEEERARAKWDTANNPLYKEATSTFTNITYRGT
# TEST_SUMMARY: cell-based or functional assay
A number alone suffices; assume %.

BINDER: FNIII 10 C-X7-C (SEQ ID NO: 8, VCPRGDWNECSK) (designed binder, Engineered intradomain disulfide bond Cys1491-Cys1499; exact N-terminus uncertain) HHHHHHVSDVPRDLEVVAATPTSLLISWDAPAVTVRYYRITYGETGGNSPVQEFTVPGSKSTATISGLKPGVDYTITVYAVCPRGDWNECSKPISINYRT
QUANTITATIVE_RESULT: 0

For the binder FNIII 10 C-X7-C (SEQ ID NO: 10, VCARGDNPDCSK) (designed binder) HHHHHHVSDVPRDLEVVAATPTSLLISWDAPAVTVRYYRITYGETGGNSPVQEFTVPGSKSTATISGLKPGVDYTITVYAVCARGDNPDCSKPISINYRT , what percentage of inhibition, cell adhesion assay is on record? 0

For the binder FNIII 10 variant (SEQ ID NO: 48, VTPRGDMPDSSK) (designed binder, also called FNIII 10 (PRGDMPD) protein; FNIII 10 PRGDMPD variant) HHHHHHVSDVPRDLEVVAATPTSLLISWDAPAVTVRYYRITYGETGGNSPVQEFTVPGSKSTATISGLKPGVDYTITVYAVTPRGDMPDSSKPISINYRT , what percentage of inhibition, cell adhesion assay is on record? 0

For the binder Control FNIII 10 mutant (SEQ ID NO: 50, VTPRGDWNEGSK) (designed binder, exact N-terminus uncertain; also called FNIII 10 variant) HHHHHHVSDVPRDLEVVAATPTSLLISWDAPAVTVRYYRITYGETGGNSPVQEFTVPGSKSTATISGLKPGVDYTITVYAVTPRGDWNEGSKPISINYRT , what percentage of inhibition, cell adhesion assay is on record? 0

For the binder FNIII 10 C-X7-C (SEQ ID NO: 6, VCPRGDMPDCSK) (designed binder) HHHHHHVSDVPRDLEVVAATPTSLLISWDAPAVTVRYYRITYGETGGNSPVQEFTVPGSKSTATISGLKPGVDYTITVYAVCPRGDMPDCSKPISINYRT , what percentage of inhibition, cell adhesion assay is on record? 19
